All figures here come from the supplement of paper PMC10567573.

Exercise: state measured protein stability index for each of the sequences provided.
- TEST_NAME: protein stability index of a GFP-peptide fusion (GPS, HEK-293T) (PSI 1-6); higher = more stable;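 also: 24-mer peptide tiles fused after GFP, lentivirally expressed, FACS-sorted into six equal bins by GFP/DsRed ratio, decoded by Illumina sequencing, PSI is the read-weighted mean bin number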
- CONDITION_DETAILS: treatment: DMSO; c terminus: a fixed tail appended

// below: answered sequences
1. FELQRLEFDLSPLNLDIGQVYKET [AASDHPPT]; 2.42
2. QMPTEIEFPESRKPISTKSQFLKH [ZNF649]; 4.16
3. GNSSGSDVTSLSSQLPDTPNSMVP [ISL2]; 5.13
4. NTRVRELAQAAGFAPQTGARPSET [DNAAF3]; 4.71
5. APVSRGRDSYGGPPRREPLPSRRD [RBMX]; 5.12

Provide reported protein stability index for each item, in the same order as listed.
1. QHKCDECGKSFTQSSGLIRHQRIH [ZSCAN9]
2. NLSLVCLPRSEDDDCDDDDDDAQI [DRICH1]
3. MDVPGPVSRRAAAAAATVLLRTAR [SLC19A2]
4. GRYRDARMNDLHYLNLDTWEWNEL [KLHDC2]
5. GIAQVKIQGQNKEMLAAACQMFLG [FLOT1]
6. KSVQGTGLAFIAFTEAMTHFPASP [SLC6A17]
7. PAPLCGGPSAEAYLLHPAAFHGAP [TBX6]

Result string:
1. 5.26
2. 5.42
3. 3.29
4. 2.86
5. 2.34
6. 2.19
7. 2.82

Provide reported protein stability index for each item, in the same order as listed.
1. ARVKAFNKTGVSPYSKTLVLQTSE [TRIM9]
2. PCASLLAFASTCLLSRFSVGIFHL [TMEM175]
3. DEKQRDPRIEASKVLLCHGELRSK [NET1]
4. MPPATGGGLAESELRPRRGRCGPQ [POMT2]

Result string:
1. 3.2
2. 3.43
3. 4.42
4. 4.59

Provide reported protein stability index for each item, in the same order as listed.
1. EEQSDQSFSSLEPDNEQLMEEVIS [IQUB]
2. HNIPLETIIPILQHLKYKEHPEAL [INTS3]
3. DNIVNCNEFLCTLQKKLDNLQCLY [ZNF277]
4. LMADKVLRWERAWFPPAIMGVVSL [ARL6IP1]
5. SEEELAAATTSKEQEPIGTDLDAV [MYBL2]
6. DLGEGKICFCCEEFQPAKCTDKEN [FAM189A2]

Result string:
5.34
2.51
2.36
3.13
5.71
4.24

Provide reported protein stability index for each item, in the same order as listed.
1. ETELAMRQSVENDIHGLRKVIDDT [KRT18]
2. MTTHPLTNNNIKQRLIKKVQEAVL [GOLPH3]
3. STLGGDIRESDPEQAPAPGEATAA [TBX6]
4. SEEIRFYQLGEEAMEKFREDEGFL [KCNA3]
5. AAPDCTPSLEAGNPAPAAPCPLGE [MYCL]
6. EGSRKSSRVKGSAPEIDPSSDGSN [KMT2E]
7. RYPTISMVKPLLHMLLNTTLNIKE [ZBED1]
8. SLFSPVTEDSPLGTVVALLNVHDL [PCDHGA10]

Result string:
1. 5.17
2. 2.79
3. 5.65
4. 4.37
5. 5.42
6. 5.36
7. 2.83
8. 2.31

Provide reported protein stability index for each item, in the same order as listed.
1. WEWSPAGLQSYQQALLRISLDKVQ [SERTAD3]
2. SSTPDSTEGGNDDSDFRELHTARE [RTN2]
3. SFPPSLSSSSSSSPTSGSPRGSHS [LURAP1L]
4. WCLRVNPKGLDDESKDYLSLYLLL [SPOPL]
5. SSGKLICSRTTGYQILTLEKDQEQ [GMCL1]
6. ESSDLQMDVMPGEGDLPQMEVGSG [EID1]

Result string:
1. 2.48
2. 5.41
3. 4.96
4. 2.96
5. 3.94
6. 5.42

Provide reported protein stability index for each item, in the same order as listed.
1. MIVDLLSEKKTISFQGCMAQLFMD [OR4A15]
2. SHSCYHDTRSGFWYVCRTQGVEGD [TRIM35]
3. FNSTYNARVKAFNKTGVSPYSKTL [TRIM9]
4. EHKSLESLADGGSASPIKDQPVMA [FANCE]
5. ASDMFRRLRDAGFRVTLWVHPFVN [MYORG]

Result string:
[2.74, 2.52, 2.55, 5.43, 2.23]

Provide reported protein stability index for each item, in the same order as listed.
1. YSIGRSVEGRHLYVLEFSDHPGIH [CPN1]
2. RQNDILQVVSQGWKYFKGNFYYFS [CD207]
3. KLKPHEEPLRSEILSGKFTILNVR [PTPN9]
4. EAVAGAEGREAPALVAAGGAPEDD [DENND6A]
5. NNFREYNLHRVAAHELGHSLGLSH [MMP1]
6. RRDCMWSGFSARERLERAVSDRLA [MYCL]

Result string:
2.07
2.3
3.01
5.63
2.85
3.31

Provide reported protein stability index for each item, in the same order as listed.
1. YGSCYTVDGVWTAQRPGITHGVGL [SCNN1D]
2. HHSFPYDYSASEYRWHINFTTFFI [SCD]
3. YISHRELGDCMRTLGYMPTEMELL [CABP4]

Result string:
[2.69, 3.06, 2.27]
